- assay_name: kinase inhibitors altering Pseudomonas killing of worms, whole organism (AID 651566);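 further: sign flipped so higher z means a lower ratio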
- condition_set: C. elegans killed by P. aeruginosa, survival ratio
Classification field: y = z-score at or over 0.2; n = z-score under 0.2.

compound	group_label
COC(=O)Nc1nc2ccc(Oc3ccc(NC(=O)Nc4cccc(Br)c4)cc3)cc2[nH]1	n
Cc1cccc(C2NNCC2c2ccc3ncccc3n2)n1 (stereo unspecified)	y
Fc1ccc(-c2ncn(C3CCNCC3)c2-c2ccnc(Oc3ccc(Cl)cc3)n2)cc1	n
COc1cc(Nc2ncc(-c3ccccc3)o2)cc(OC)c1OC	y
Cc1ccc(-c2cc3c(NC(=O)C4CC4)ncnc3o2)cc1	n
O=C1Nc2ccccc2/C1=C1\CCc2cc(O)ccc21	n

---

- assay_name: modulators of glucocorticoid suppression of NF-kB, cell-based, luciferase, IL-1B stimulus, dexamethasone (AID 624486);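 further: 100% = mean signal of vehicle control wells on the plate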
- condition_set: NF-kB luciferase reporter, IL-1B + dexamethasone, luminescence; actives lie on both sides, concentration not given here
Classification field: t = percent of negative control (+Dex) at or over 80%; f = percent of negative control (+Dex) under 80%.

compound	group_label
COc1cc(Nc2ncc3c(C)nc(-c4cccc(Oc5ccccc5)c4)n3n2)cc(OC)c1OC	f
Cc1nc2sc3c(N)ncnc3c2c(C)c1C	f
CCc1nccc2c1nc(-c1nonc1N)n2CC	f
Cn1cc(C2=C(c3cn(CCCCCO)c4ccccc34)C(=O)NC2=O)c2ccccc21	t
NCc1ccc(-n2c(-c3nonc3N)nc3cnccc32)cc1	f
O=C1NC(=NC2CC2c2ccccc2)SC1=Cc1ccc2ncccc2c1 (stereo unspecified)	f
COc1ccc2c(C3=C(c4cn(C)c5ccccc45)C(=O)NC3=O)cn(C)c2c1	t
Fc1cccc(COc2ccc(Nc3ncnc4sc(-c5ccco5)cc34)cc2Cl)c1	t
COc1ccc2ncn(-c3cc(O[C@H](C)c4ccccc4C(F)(F)F)c(C(N)=O)s3)c2c1	f
CC(=O)Nc1ccc2c(C3=C(c4cn(C)c5ccccc45)C(=O)NC3=O)cn(C)c2c1	t
OCCCNc1nccc(-c2c(-c3ccc(F)cc3)nn3cc(C(F)(F)F)ccc23)n1	t
COC(=O)Nc1nc2ccc(Oc3cccc(NC(=O)Nc4cc(C(F)(F)F)ccc4F)c3)cc2[nH]1	t
CC(=O)NC(Cc1ccc(OP(=O)(O)O)cc1)C(=O)NC1CCC(=O)N2CCCC(C(=O)NCc3ccccc3)N2C1=O (stereo unspecified)	t
Nc1c(C(=O)c2cccc(C#CCO)c2)cnn1-c1ccc(F)cc1	t
CC(C)c1[nH]nc2c1N=C(c1ccccc1Cl)c1cc([N+](=O)[O-])ccc1N2	t
Nc1[nH]nc2nc(-c3cccs3)cc(C(F)(F)F)c12	f
CC(C)c1ccc2c(N=Nc3ccc(S(N)(=O)=O)cc3)c(O)[nH]c2c1	t
COc1ccc(-c2cc(C3CNNC3c3ccccn3)ccn2)cc1 (stereo unspecified)	t
Nc1nc(-c2cccc(Cl)c2)c(-c2ccc3ncccc3n2)s1	t
COc1ccc(O)c(C(=O)c2ccc(C(=O)NC3CCCNCC3NC(=O)c3ccncc3)cc2)c1F (stereo unspecified)	f
COc1cc[nH]c1C=C1C(=O)Nc2ccc(F)c(C#CC3(O)CCNCC3)c21	t

---

inhibition of viability reference
- assay_name: HCT116 colon cancer cell growth inhibition, primary screen, CellTiter-Glo luminescence, NPC library (AID 1117342)
- condition_set: at 20 µM (top of the series)

line_notation	inhibition of viability [%]
NNc1nnc(NN)c2ccccc12	22.6
Cc1onc(-c2c(F)cccc2Cl)c1C(=O)Cl	0.4
CCCCCCCCCCCCCCCC[n+]1ccccc1	112
C/C(=C(/OCCOc1ccc(Cl)cc1)c1ccc(Cl)cc1Cl)n1ccnc1	102
NCC[C@H](O)C(=O)N[C@@H]1C[C@H](N)[C@@H](O[C@H]2O[C@H](CN)[C@@H](O)[C@H](O)[C@@H]2O)[C@H](O)[C@@H]1O[C@H]1O[C@H](CO)[C@@H](O)[C@H](N)[C@@H]1O	-2.7

---

- Test system: R275C/Slo1WT/beta2
- assay_name: modulators of BK channel variants, profiling panel, selectivity assay, cell-based, U2OS BacMam, thallium flux, beta subunits (AID 1259406);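 further: initial slope of Thallos dye fluorescence rise after thallium is added; log ratio against the mean of 0.3% DMSO vehicle wells on the same plate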
- condition_set: at 30 µM
The label class 1 is reserved for log fold change Tl+ flux strictly under 0.01; class 0 covers values equal to or above it.

compound	group_label
Clc1ccc2c(c1)C(N1CCNCC1)=Nc1ccccc1O2	class 0
CN1CCCC(n2nc(Cc3ccc(Cl)cc3)c3ccccc3c2=O)CC1 (centres undefined)	class 0
O=C1c2c(O)ccc(O)c2C(=O)c2c(NCCNCCO)ccc(NCCNCCO)c21	class 1
CC[C@H](C)C(=O)O[C@H]1C[C@H](O)C=C2C=C[C@H](C)[C@H](CC[C@@H](O)C[C@@H](O)CC(=O)O)[C@H]21	class 1
OCCN1C[C@H](O)[C@@H](O)[C@H](O)[C@H]1CO	class 1
O=C1CCC(N2C(=O)c3ccccc3C2=O)C(=O)N1 (centres undefined)	class 1
CC(=O)OCC(=O)[C@@]1(O)CC[C@H]2[C@@H]3CCC4=CC(=O)C=C[C@]4(C)[C@H]3[C@@H](O)C[C@@]21C	class 0
NS(=O)(=O)c1cc2c(cc1Cl)NC=NS2(=O)=O	class 0
CN(C)CCc1c[nH]c2ccc(C[C@H]3COC(=O)N3)cc12	class 0
C[C@@H]1O[C@@H](OC[C@H]2O[C@@H](Oc3c(-c4ccc(O)c(O)c4)oc4cc(O)cc(O)c4c3=O)[C@H](O)[C@@H](O)[C@@H]2O)[C@H](O)[C@H](O)[C@H]1O	class 0
CC(=O)[C@H]1CC[C@H]2[C@@H]3C[C@H](C)C4=CC(=O)CC[C@]4(C)[C@H]3[C@@H](O)C[C@]12C	class 1
CC[C@H](C)C(=O)O[C@H]1C[C@@H](C)C=C2C=C[C@H](C)[C@H](CC[C@@H]3C[C@@H](O)CC(=O)O3)[C@H]21	class 1
C#C[C@]1(O)CC[C@H]2[C@@H]3CCC4=Cc5oncc5C[C@]4(C)[C@H]3CC[C@@]21C	class 1
CC12CC3CC(C)(C1)CC(N)(C3)C2	class 1
CCS(=O)(=O)CCn1c([N+](=O)[O-])cnc1C	class 1
C[C@H]1C[C@@H]2[C@H]([C@@H](O)C[C@@]3(C)[C@H]2CC[C@]3(O)C(=O)CO)[C@@]2(C)C=CC(=O)C=C12	class 0
C#C[C@]1(O)CC[C@H]2[C@@H]3CCC4=CC(=O)CC[C@@H]4[C@H]3CC[C@@]21CC	class 1
CCc1cc(C(N)=S)ccn1	class 1

---

- system_tested: NAD(+) hydrolase SARM1 (Homo sapiens) (UniProt Q6SZW1)
- Sequence (Q6SZW1 whole entry, looked up): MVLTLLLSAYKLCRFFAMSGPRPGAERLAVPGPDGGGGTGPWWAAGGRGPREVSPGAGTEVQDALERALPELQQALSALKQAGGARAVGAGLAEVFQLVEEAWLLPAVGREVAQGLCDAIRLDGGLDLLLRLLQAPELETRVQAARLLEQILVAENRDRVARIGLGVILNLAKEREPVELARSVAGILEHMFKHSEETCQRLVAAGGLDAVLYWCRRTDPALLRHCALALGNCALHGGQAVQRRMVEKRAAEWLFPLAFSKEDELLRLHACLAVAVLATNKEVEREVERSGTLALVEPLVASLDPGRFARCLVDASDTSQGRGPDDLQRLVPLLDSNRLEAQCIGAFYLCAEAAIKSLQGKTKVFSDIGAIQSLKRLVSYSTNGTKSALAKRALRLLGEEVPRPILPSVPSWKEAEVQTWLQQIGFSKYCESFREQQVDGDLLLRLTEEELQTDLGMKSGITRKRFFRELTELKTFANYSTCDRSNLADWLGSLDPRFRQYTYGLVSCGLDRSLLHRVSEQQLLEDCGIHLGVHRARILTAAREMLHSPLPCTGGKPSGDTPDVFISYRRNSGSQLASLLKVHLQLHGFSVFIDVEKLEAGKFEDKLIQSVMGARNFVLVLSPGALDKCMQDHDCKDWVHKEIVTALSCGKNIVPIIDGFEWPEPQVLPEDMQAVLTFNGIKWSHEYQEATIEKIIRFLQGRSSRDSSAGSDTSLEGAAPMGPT
- assay_name: SARM1 TIR NADase inhibitors, cell lysate, NAD-Glo luminescence (AID 1508614);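 further: higher remaining NAD means stronger inhibition of SARM1 NADase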
- condition_set: SAM-TIR HEK293T lysate NADase, at 1 µM, stronger effect = higher value
Activity calls are given as the source filed them.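 Rule for the calls: active = compound whose remaining NAD level is above about 45 nM (limit read from the data); inactive = the rest.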
remaining NAD reference

molecule	system_tested	remaining NAD
CC(=O)OCC(=O)[C@@]1(O)CC[C@H]2[C@@H]3CCC4=CC(=O)C=C[C@]4(C)[C@H]3[C@@H](O)C[C@@]21C	NAD(+) hydrolase SARM1 (Homo sapiens) (UniProt Q6SZW1)	10 nM (inactive)
CN(C)CCC[C@@]1(c2ccc(F)cc2)OCc2cc(C#N)ccc21	NAD(+) hydrolase SARM1 (Homo sapiens) (UniProt Q6SZW1)	10 nM (inactive)
O=S(=O)(O)CCS	NAD(+) hydrolase SARM1 (Homo sapiens) (UniProt Q6SZW1)	10 nM (inactive)
O=C(O)c1cc(=O)c2c(OCC(O)COc3cccc4oc(C(=O)O)cc(=O)c34)cccc2o1	NAD(+) hydrolase SARM1 (Homo sapiens) (UniProt Q6SZW1)	10 nM (inactive)
CN=C(NC#N)NCCSCc1nc[nH]c1C	NAD(+) hydrolase SARM1 (Homo sapiens) (UniProt Q6SZW1)	10 nM (inactive)
CCc1nc(N)nc(N)c1-c1ccc(Cl)cc1	NAD(+) hydrolase SARM1 (Homo sapiens) (UniProt Q6SZW1)	10 nM (inactive)
Cc1onc(-c2c(Cl)cccc2Cl)c1C(=O)N[C@@H]1C(=O)N2[C@@H]1SC(C)(C)[C@@H]2C(=O)O	NAD(+) hydrolase SARM1 (Homo sapiens) (UniProt Q6SZW1)	10 nM (inactive)
NCc1ccc(S(N)(=O)=O)cc1	NAD(+) hydrolase SARM1 (Homo sapiens) (UniProt Q6SZW1)	10 nM (inactive)
CC(N=C(NC#N)Nc1ccncc1)C(C)(C)C (stereo not given)	NAD(+) hydrolase SARM1 (Homo sapiens) (UniProt Q6SZW1)	10 nM (inactive)
Cc1cccc(Nc2ccncc2S(=O)(=O)NC(=O)NC(C)C)c1	NAD(+) hydrolase SARM1 (Homo sapiens) (UniProt Q6SZW1)	10 nM (inactive)

---

- assay_name: ovarian cancer cell viability with rucaparib, profiling panel, oncology-focused library, rucaparib conditional (AID 1508598)
- condition_set: patient-derived ovarian cancer cells, CellTiter-Glo viability, 144 h; at 5 µM; OCI-P5x cells; without rucaparib
Activity calls are given as the source filed them.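 How the source made its calls: active means normalized viability below 100% at a tested concentration; inactive means the rest.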
Labels: active, inactive

molecule	group_label
NC(=O)c1ccc(-c2nc(-c3ccc4c(c3)OCO4)c(-c3ccccn3)[nH]2)cc1	active
O=c1[nH]cc(F)c(=O)[nH]1	active
O=c1[nH]cnc2[nH]ncc12	active
CN(CCOc1ccc(CC2SC(=O)NC2=O)cc1)c1ccccn1 (stereo not given)	inactive
CC(C)C(=O)Nc1ccc([N+](=O)[O-])c(C(F)(F)F)c1	inactive
